Biological target: T1, K754A (Drosophila melanogaster, UniProt Q9W1K4 512-819, K754A)
T1 sequence: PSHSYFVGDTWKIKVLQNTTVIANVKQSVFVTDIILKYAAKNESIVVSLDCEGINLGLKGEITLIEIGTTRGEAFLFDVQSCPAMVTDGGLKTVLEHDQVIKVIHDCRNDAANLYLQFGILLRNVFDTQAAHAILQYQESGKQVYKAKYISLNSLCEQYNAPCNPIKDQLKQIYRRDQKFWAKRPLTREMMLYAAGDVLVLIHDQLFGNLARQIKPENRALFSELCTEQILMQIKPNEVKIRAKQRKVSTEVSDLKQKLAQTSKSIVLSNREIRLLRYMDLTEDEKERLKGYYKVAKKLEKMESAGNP
Assay: fluorescence anisotropy; FA: 20 mM HEPES-NaOH pH 7.5, 100 mM NaCl, 10% glycerol, 20 C, 10 nM FAM-RNA; competition: 150 nM Egl512-819 + 10 nM FAM-K10 TLS, same buffer
Conditions: protein: recombinant; tags: N-terminal GST; label: 5'-6-FAM; hairpin with two bulges
Experimental endpoint: pKd
# pKd is unitless: minus log10 of the molar concentration; print number only

Query: Specify reported pKd for the binder shown: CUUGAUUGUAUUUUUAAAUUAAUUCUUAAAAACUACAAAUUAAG (structured_RNA) [K10 TLS (FAM)]
Reply: 6.67
